Target: T1, ZFP SBS#974 (synthetic)
T1 chain: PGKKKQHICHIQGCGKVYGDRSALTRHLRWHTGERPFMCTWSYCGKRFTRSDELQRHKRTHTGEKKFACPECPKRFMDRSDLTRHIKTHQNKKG
Test: EMSA
Conditions: tags: MBP fusion
MEASUREMENT_KIND: Kd (pM)
Record the value in pM, omitting the unit from your answer.

According to the records, this binder GCCGCGGTC (dsDNA) DNA 1: GCCGCGGTC DNA 2: GACCGCGGC displays Kd of 38
